Assay: Stability of the compound in aqueous sulfuric acid solution assessed as compound remaining at 250 uM at pH 0.33 at 80 degC after 6 days by HPLC analysis
Assay type: physicochemical
Conditions: read-out: Stability

- COMPOUND_STRING: "O=C(N[C@@H]1O[C@H](CO)[C@@H](O)[C@H](O)[C@H]1O)c1cc(O)c(O)c(O)c1"
  remaining at 144 h, 250 µM [%]: 96

----------
Assay: Drug degradation in aqueous sulfuric acid solution at 250 uM at pH 0.33 at 80 degC after 15 mins by HPLC analysis
Type: physicochemical
Details: read-out: Drug degradation
EXPERIMENTAL_READOUT: degraded at 0.25 h, 250 µM (%)

- COMPOUND_STRING: "O=C(O[C@@H]1O[C@H](CO)[C@@H](O)[C@H](O)[C@H]1O)c1cc(O)c(O)c(O)c1"
  EXPERIMENTAL_READOUT: "degraded at 0.25 h, 250 µM"
  TEST_RESULT: 76

----------
Molecular target: Aldo-keto reductase family 1 member B1 (Homo sapiens, UniProt P15121)
Test: Inhibition of human recombinant AKR1B1 expressed in Escherichia coli using DL-glyceraldehyde as substrate after 5 mins by spectrophotometry

- COMPOUND_STRING: "O=C(O[C@@H]1O[C@H](CO)[C@@H](O)[C@H](O)[C@H]1O)c1cc(O)c(O)c(O)c1"
  IC50, µM: 8
- COMPOUND_STRING: "O=C(N[C@@H]1O[C@H](CO)[C@@H](O)[C@H](O)[C@H]1O)c1cc(O)c(O)c(O)c1"
  IC50, µM: 9

The values you see were collected from ChEMBL document CHEMBL3108697.
